Molecular target: UniProtKB P26769
Assay: AC catalytic activity inhibition, AC2 isoform
Assay type: biochemical
Conditions: 5 mM MgCl2 with Gsalpha/GTPgammaS/forskolin (50 micro M)
quantityKind: IC50

{"molecule": "Nc1ncnc2c1ncn2C1CCCO1 (stereo not shown) [THFA, 9-(tetrahydro-2-furyl)adenine]", "result": "285 µM"}

* * *

Target: AC5 (Canis lupus familiaris)
Assay: AC catalytic activity inhibition, AC5 isoform
Conditions: 5 mM MgCl2 with Gsalpha/GTPgammaS/forskolin (50 micro M)
pIC50: −log10 of the molar value.

{"compound": "Nc1ncnc2c1ncn2[C@@H]1O[C@H](CO)[C@@H](OP(=O)(O)O)[C@H]1O", "pIC50": 4.84}
{"compound": "Nc1ncnc2c1ncn2[C@H]1C[C@H](OP(=O)(O)O)[C@@H](CO)O1", "pIC50": 6.09}
{"compound": "Nc1ncnc2c1ncn2C1CCCO1 (stereo not shown) [THFA, 9-(tetrahydro-2-furyl)adenine]", "pIC50": 5.66}
{"compound": "Nc1ncc2c(n1)CC(c1ccco1)CC2=O (stereo not shown)", "pIC50": 5.08}
